Origin of measurements: patent US5840684A

System: Staphylococcus aureus S13E
Format: cell-based

compound: CNC(CC(C)C)C(=O)NC1C(=O)NC(CC(N)=O)C(=O)NC2C(=O)NC3C(=O)NC(C(=O)NC(C(=O)O)c4cc(O)cc(O)c4-c4cc3ccc4O)C(OC3CC(C)(N)C(O)C(C)O3)c3ccc(c(Cl)c3)Oc3cc2cc(c3OC2OC(CO)C(O)C(O)C2OC2CC(C)(NCc3ccc(-c4ccc(-c5ccccc5)cc4)cc3)C(O)C(C)O2)Oc2ccc(cc2Cl)C1O (stereo not drawn)
measurement-unit: µg/mL
modifier-sign: =
MIC: 2
//
compound: CNC(CC(C)C)C(=O)NC1C(=O)NC(CC(N)=O)C(=O)NC2C(=O)NC3C(=O)NC(C(=O)NC(C(=O)O)c4cc(O)cc(O)c4-c4cc3ccc4O)C(OC3CC(C)(N)C(O)C(C)O3)c3ccc(c(Cl)c3)Oc3cc2cc(c3OC2OC(CO)C(O)C(O)C2OC2CC(C)(NCc3ccc(-c4ccc(OC)cc4)s3)C(O)C(C)O2)Oc2ccc(cc2Cl)C1O (stereo not drawn)
measurement-unit: µg/mL
modifier-sign: =
MIC: 1
//
compound: C=CCCCCCCCCCNC1(C)CC(OC2C(Oc3c4cc5cc3Oc3ccc(cc3Cl)C(OC3CC(C)(N)C(O)C(C)O3)C3NC(=O)C(NC(=O)C5NC(=O)C(CC(N)=O)NC(=O)C(NC(=O)C(CC(C)C)NC)C(O)c5ccc(c(Cl)c5)O4)c4ccc(O)c(c4)-c4c(O)cc(O)cc4C(C(=O)O)NC3=O)OC(CO)C(O)C2O)OC(C)C1O (stereo not drawn)
measurement-unit: µg/mL
modifier-sign: =
MIC: 0.5
//
compound: CCOc1cc(CNC2(C)CC(OC3C(Oc4c5cc6cc4Oc4ccc(cc4Cl)C(OC4CC(C)(N)C(O)C(C)O4)C4NC(=O)C(NC(=O)C6NC(=O)C(CC(N)=O)NC(=O)C(NC(=O)C(CC(C)C)NC)C(O)c6ccc(c(Cl)c6)O5)c5ccc(O)c(c5)-c5c(O)cc(O)cc5C(C(=O)O)NC4=O)OC(CO)C(O)C3O)OC(C)C2O)ccc1OCC1CCCCC1 (stereo not drawn)
measurement-unit: µg/mL
modifier-sign: =
MIC: 0.5
//
compound: CNC(CC(C)C)C(=O)NC1C(=O)NC(CC(N)=O)C(=O)NC2C(=O)NC3C(=O)NC(C(=O)NC(C(=O)O)c4cc(O)cc(O)c4-c4cc3ccc4O)C(OC3CC(C)(N)C(O)C(C)O3)c3ccc(c(Cl)c3)Oc3cc2cc(c3OC2OC(CO)C(O)C(O)C2OC2CC(C)(NCCc3cccc(Oc4ccccc4)c3)C(O)C(C)O2)Oc2ccc(cc2Cl)C1O (stereo not drawn)
measurement-unit: µg/mL
modifier-sign: =
MIC: 0.5
//
compound: CNC(CC(C)C)C(=O)NC1C(=O)NC(CC(N)=O)C(=O)NC2C(=O)NC3C(=O)NC(C(=O)NC(C(=O)O)c4cc(O)cc(O)c4-c4cc3ccc4O)C(OC3CC(C)(N)C(O)C(C)O3)c3ccc(c(Cl)c3)Oc3cc2cc(c3OC2OC(CO)C(O)C(O)C2OC2CC(C)(NCc3ccc(Oc4ccc([N+](=O)[O-])cc4)cc3)C(O)C(C)O2)Oc2ccc(cc2Cl)C1O (stereo not drawn)
measurement-unit: µg/mL
modifier-sign: ≤
MIC: 0.06
//
compound: CNC(CC(C)C)C(=O)NC1C(=O)NC(CC(N)=O)C(=O)NC2C(=O)NC3C(=O)NC(C(=O)NC(C(=O)O)c4cc(O)cc(O)c4-c4cc3ccc4O)C(OC3CC(C)(N)C(O)C(C)O3)c3ccc(c(Cl)c3)Oc3cc2cc(c3OC2OC(CO)C(O)C(O)C2OC2CC(C)(NCCc3ccc(Cc4ccccc4)cc3)C(O)C(C)O2)Oc2ccc(cc2Cl)C1O (stereo not drawn)
measurement-unit: µg/mL
modifier-sign: ≤
MIC: 0.06
//
compound: CNC(CC(C)C)C(=O)NC1C(=O)NC(CC(N)=O)C(=O)NC2C(=O)NC3C(=O)NC(C(=O)NC(C(=O)O)c4cc(O)cc(O)c4-c4cc3ccc4O)C(OC3CC(C)(N)C(O)C(C)O3)c3ccc(c(Cl)c3)Oc3cc2cc(c3OC2OC(CO)C(O)C(O)C2OC2CC(C)(NCc3ccc4cc(OC)ccc4c3)C(O)C(C)O2)Oc2ccc(cc2Cl)C1O (stereo not drawn)
measurement-unit: µg/mL
modifier-sign: =
MIC: 0.5
//
compound: CNC(CC(C)C)C(=O)NC1C(=O)NC(CC(N)=O)C(=O)NC2C(=O)NC3C(=O)NC(C(=O)NC(C(=O)O)c4cc(O)cc(O)c4-c4cc3ccc4O)C(OC3CC(C)(N)C(O)C(C)O3)c3ccc(c(Cl)c3)Oc3cc2cc(c3OC2OC(CO)C(O)C(O)C2OC2CC(C)(NCc3ccc(-c4ccccc4[N+](=O)[O-])c([N+](=O)[O-])c3)C(O)C(C)O2)Oc2ccc(cc2Cl)C1O (stereo not drawn)
measurement-unit: µg/mL
modifier-sign: ≤
MIC: 0.06
//
compound: C=CCCCOc1ccc(CNC2(C)CC(OC3C(Oc4c5cc6cc4Oc4ccc(cc4Cl)C(OC4CC(C)(N)C(O)C(C)O4)C4NC(=O)C(NC(=O)C6NC(=O)C(CC(N)=O)NC(=O)C(NC(=O)C(CC(C)C)NC)C(O)c6ccc(c(Cl)c6)O5)c5ccc(O)c(c5)-c5c(O)cc(O)cc5C(C(=O)O)NC4=O)OC(CO)C(O)C3O)OC(C)C2O)cc1 (stereo not drawn)
measurement-unit: µg/mL
modifier-sign: =
MIC: 0.5
//
compound: CC(C)CC(C(=O)NC1C(=O)NC(CC(N)=O)C(=O)NC2C(=O)NC3C(=O)NC(C(=O)NC(C(=O)O)c4cc(O)cc(O)c4-c4cc3ccc4O)C(OC3CC(C)(N)C(O)C(C)O3)c3ccc(c(Cl)c3)Oc3cc2cc(c3OC2OC(CO)C(O)C(O)C2OC2CC(C)(NCc3cc4ccccc4s3)C(O)C(C)O2)Oc2ccc(cc2Cl)C1O)N(C)Cc1cc2ccccc2s1 (stereo not drawn)
measurement-unit: µg/mL
modifier-sign: =
MIC: 2
//
compound: CNC(CC(C)C)C(=O)NC1C(=O)NC(CC(N)=O)C(=O)NC2C(=O)NC3C(=O)NC(C(=O)NC(C(=O)O)c4cc(O)cc(O)c4-c4cc3ccc4O)C(OC3CC(C)(N)C(O)C(C)O3)c3ccc(c(Cl)c3)Oc3cc2cc(c3OC2OC(CO)C(O)C(O)C2OC2CC(C)(NCc3ccc(S(=O)(=O)c4ccc(Cl)cc4)cc3)C(O)C(C)O2)Oc2ccc(cc2Cl)C1O (stereo not drawn)
measurement-unit: µg/mL
modifier-sign: =
MIC: 1

###

The following compounds are listed with their measured MIC values.
Tested on: Escherichia coli EC14
assay-procedure: broth micro-dilution MIC
Assay type: cell-based

compound: CNC(CC(C)C)C(=O)NC1C(=O)NC(CC(N)=O)C(=O)NC2C(=O)NC3C(=O)NC(C(=O)NC(C(=O)O)c4cc(O)cc(O)c4-c4cc3ccc4O)C(OC3CC(C)(NCc4ccc(-c5ccc([N+](=O)[O-])cc5)cc4)C(O)C(C)O3)c3ccc(c(Cl)c3)Oc3cc2cc(c3OC2OC(CO)C(O)C(O)C2OC2CC(C)(NCc3ccc(-c4ccc([N+](=O)[O-])cc4)cc3)C(O)C(C)O2)Oc2ccc(cc2Cl)C1O (stereo not drawn)
target: Escherichia coli EC14
MIC: 65 µg/mL

compound: CNC(CC(C)C)C(=O)NC1C(=O)NC(CC(N)=O)C(=O)NC2C(=O)NC3C(=O)NC(C(=O)NC(C(=O)O)c4cc(O)cc(O)c4-c4cc3ccc4O)C(OC3CC(C)(NCc4ccc(SC)cc4)C(O)C(C)O3)c3ccc(c(Cl)c3)Oc3cc2cc(c3OC2OC(CO)C(O)C(O)C2OC2CC(C)(NCc3ccc(SC)cc3)C(O)C(C)O2)Oc2ccc(cc2Cl)C1O (stereo not drawn)
target: Escherichia coli EC14
MIC: > 64 µg/mL

compound: CC(C)CC(C(=O)NC1C(=O)NC(CC(N)=O)C(=O)NC2C(=O)NC3C(=O)NC(C(=O)NC(C(=O)O)c4cc(O)cc(O)c4-c4cc3ccc4O)C(OC3CC(C)(N)C(O)C(C)O3)c3ccc(c(Cl)c3)Oc3cc2cc(c3OC2OC(CO)C(O)C(O)C2OC2CC(C)(NCC3CC=CCC3)C(O)C(C)O2)Oc2ccc(cc2Cl)C1O)N(C)CC1CC=CCC1 (stereo not drawn)
target: Escherichia coli EC14
MIC: > 64 µg/mL

compound: CC(C)CC(C(=O)NC1C(=O)NC(CC(N)=O)C(=O)NC2C(=O)NC3C(=O)NC(C(=O)NC(C(=O)O)c4cc(O)cc(O)c4-c4cc3ccc4O)C(OC3CC(C)(N)C(O)C(C)O3)c3ccc(c(Cl)c3)Oc3cc2cc(c3OC2OC(CO)C(O)C(O)C2OC2CC(C)(NCc3ccc(Oc4ccccc4)cc3)C(O)C(C)O2)Oc2ccc(cc2Cl)C1O)N(C)Cc1ccc(Oc2ccccc2)cc1 (stereo not drawn)
target: Escherichia coli EC14
MIC: > 64 µg/mL

compound: CNC(CC(C)C)C(=O)NC1C(=O)NC(CC(N)=O)C(=O)NC2C(=O)NC3C(=O)NC(C(=O)NC(C(=O)O)c4cc(O)cc(O)c4-c4cc3ccc4O)C(OC3CC(C)(NCc4ccc(C(F)(F)F)cc4)C(O)C(C)O3)c3ccc(c(Cl)c3)Oc3cc2cc(c3OC2OC(CO)C(O)C(O)C2OC2CC(C)(NCc3ccc(C(F)(F)F)cc3)C(O)C(C)O2)Oc2ccc(cc2Cl)C1O (stereo not drawn)
target: Escherichia coli EC14
MIC: > 64 µg/mL

compound: CC(C)CC(C(=O)NC1C(=O)NC(CC(N)=O)C(=O)NC2C(=O)NC3C(=O)NC(C(=O)NC(C(=O)O)c4cc(O)cc(O)c4-c4cc3ccc4O)C(OC3CC(C)(N)C(O)C(C)O3)c3ccc(c(Cl)c3)Oc3cc2cc(c3OC2OC(CO)C(O)C(O)C2OC2CC(C)(NCc3ccc(N(C)c4ccccc4)cc3)C(O)C(C)O2)Oc2ccc(cc2Cl)C1O)N(C)Cc1ccc(N(C)c2ccccc2)cc1 (stereo not drawn)
target: Escherichia coli EC14
MIC: > 64 µg/mL
